The measurements presented in this section are drawn from patent US6414004B1.

Item-by-item account of melting point

Reference set, count: 6
CSc1noc(-c2ccc(OCCOc3ccccc3)cc2)c1C#N = 128 to 131 °C
CSc1noc(-c2ccc(OCCOc3ccc(C)cc3)cc2)c1C#N = 139 to 140 °C
CSc1noc(-c2ccc(OCCCc3ccccc3)cc2)c1C#N = 99 to 100 °C
CSc1noc(-c2ccc(OCCCCOc3ccccc3)cc2)c1C#N = 113 to 114 °C
CSc1noc(-c2ccc(OCCOc3ccc(Br)cc3)cc2)c1C#N = 156 to 157 °C
CSc1noc(-c2ccc(OCCOc3ccc([N+](=O)[O-])cc3)cc2)c1C#N = 170 to 171 °C

Lab note: measured melting point of CCOC(=O)c1ccc(OCCOc2ccc(-c3onc(SC)c3C#N)cc2)cc1 was 162 to 164 °C

Lab note: measured melting point of CSc1noc(-c2ccc(OCCCOc3ccccc3)cc2)c1C#N was 121 to 123 °C

----------
Item-by-item account of Concentration inhibiting by 50% HEp2 cell proliferation: CD50
System: HEp2 cells
assay.explanation: Cytotoxicity, HEp2 cell proliferation (microscopy, MTT test)
Assay type: cell-based
measurement.setup: 48-72 h incubation at 37° C.
All answers are understood in µM, so give the number only.

Reference set, count: 2
CCOC(=O)c1ccc(OCCOc2ccc(-c3onc(SC)c3C#N)cc2)cc1 = 25
CSc1noc(-c2ccc(OCCCOc3ccccc3)cc2)c1C#N = 20

Lab note: measured Concentration inhibiting by 50% HEp2 cell proliferation: CD50 of CSc1noc(-c2ccc(OCCCCOc3ccccc3)cc2)c1C#N was 10

Lab note: measured Concentration inhibiting by 50% HEp2 cell proliferation: CD50 of CSc1noc(-c2ccc(OCCOc3ccc([N+](=O)[O-])cc3)cc2)c1C#N was 25

----------
Test system: HRV-70
assay.explanation: Rhinovirus cytopathic effect reduction in HeLa-Ohio cells (MTT test)
Type: cell-based
measurement.setup: Enterovirus, HRV70; HRV-70, HeLa-Ohio cells; read-out: Concentration inhibiting by 100% viral replication
Item-by-item account of IC100
All answers are understood in µM, so give the number only.

CSc1noc(-c2ccc(OCCCc3ccccc3)cc2)c1C#N = 5

Lab note: measured IC100 of CSc1noc(-c2ccc(OCCOc3ccccc3)cc2)c1C#N was 5

Lab note: measured IC100 of CSc1noc(-c2ccc(OCCOc3ccc([N+](=O)[O-])cc3)cc2)c1C#N was 8

Lab note: measured IC100 of CSc1noc(-c2ccc(OCCCOc3ccccc3)cc2)c1C#N was 5

Lab note: measured IC100 of CSc1noc(-c2ccc(OCCc3ccccc3)cc2)c1C#N was 10

Lab note: measured IC100 of CSc1noc(-c2ccc(OCCOc3ccc(C)cc3)cc2)c1C#N was 5

Lab note: measured IC100 of CSc1noc(-c2ccc(OCCCCOc3ccccc3)cc2)c1C#N was 1

Lab note: measured IC100 of CCOC(=O)c1ccc(OCCOc2ccc(-c3onc(SC)c3C#N)cc2)cc1 was 1

Lab note: measured IC100 of CSc1noc(-c2ccc(OCCOc3ccc(Br)cc3)cc2)c1C#N was 2

----------
Test system: HRV-86
assay.explanation: Rhinovirus cytopathic effect reduction in HeLa-Ohio cells (MTT test)
Format: cell-based
measurement.setup: Enterovirus, HRV86; HRV-86, HeLa-Ohio cells; read-out: Concentration inhibiting by 100% viral replication
measurement.name: IC100 (µM)
All answers are understood in µM, so give the number only.

Reference set, count: 3
CSc1noc(-c2ccc(OCCCOc3ccccc3)cc2)c1C#N = 5
CSc1noc(-c2ccc(OCCOc3ccccc3)cc2)c1C#N = 5
CSc1noc(-c2ccc(OCCCCOc3ccccc3)cc2)c1C#N = 1

Lab note: measured IC100 of CSc1noc(-c2ccc(OCCc3ccccc3)cc2)c1C#N was 6

Lab note: measured IC100 of CCOC(=O)c1ccc(OCCOc2ccc(-c3onc(SC)c3C#N)cc2)cc1 was 1

----------
System: HeLa cells
assay.explanation: Cytotoxicity, HeLa cell proliferation (microscopy, MTT test)
Type: cell-based
measurement.setup: 48-72 h incubation at 37° C.
Item-by-item account of Concentration inhibiting by 50% HeLa cell proliferation: CD50

CCOC(=O)c1ccc(OCCOc2ccc(-c3onc(SC)c3C#N)cc2)cc1 = 10 µM
CSc1noc(-c2ccc(OCCOc3ccc(Br)cc3)cc2)c1C#N = 10 µM
CSc1noc(-c2ccc(OCCCOc3ccccc3)cc2)c1C#N = 20 µM
CSc1noc(-c2ccc(OCCCc3ccccc3)cc2)c1C#N = > 25 µM

Lab note: measured Concentration inhibiting by 50% HeLa cell proliferation: CD50 of CSc1noc(-c2ccc(OCCOc3ccccc3)cc2)c1C#N was > 25 µM

Lab note: measured Concentration inhibiting by 50% HeLa cell proliferation: CD50 of CSc1noc(-c2ccc(OCCOc3ccc(C)cc3)cc2)c1C#N was > 25 µM

Lab note: measured Concentration inhibiting by 50% HeLa cell proliferation: CD50 of CSc1noc(-c2ccc(OCCOc3ccc([N+](=O)[O-])cc3)cc2)c1C#N was 10 µM

Lab note: measured Concentration inhibiting by 50% HeLa cell proliferation: CD50 of CSc1noc(-c2ccc(OCCCCOc3ccccc3)cc2)c1C#N was 10 µM

Lab note: measured Concentration inhibiting by 50% HeLa cell proliferation: CD50 of CSc1noc(-c2ccc(OCCc3ccccc3)cc2)c1C#N was > 20 µM

----------
Tested on: HRV-89
assay.explanation: Rhinovirus cytopathic effect reduction in HeLa-Ohio cells (MTT test)
Format: cell-based
measurement.setup: HRV-89, HeLa-Ohio cells
measurement.name: Concentration inhibiting by 100% viral replication (µM)
All answers are understood in µM, so give the number only.

Reference set, count: 2
CSc1noc(-c2ccc(OCCOc3ccc(C)cc3)cc2)c1C#N [ON-12] = 5
CSc1noc(-c2ccc(OCCc3ccccc3)cc2)c1C#N [ON-6] = 2

Lab note: measured Concentration inhibiting by 100% viral replication of CSc1noc(-c2ccc(OCCCOc3ccccc3)cc2)c1C#N [ON-9] was 5

Lab note: measured Concentration inhibiting by 100% viral replication of CSc1noc(-c2ccc(OCCOc3ccc(Br)cc3)cc2)c1C#N [ON-14] was 2

----------
Tested on: HRV-86
assay.explanation: Rhinovirus cytopathic effect reduction in HeLa-Ohio cells (MTT test)
Type: cell-based
measurement.setup: Enterovirus, HRV86; HRV-86, HeLa-Ohio cells; read-out: Concentration inhibiting by 100% viral replication
measurement.name: IC100 (µM)
All answers are understood in µM, so give the number only.

Reference set, count: 3
CSc1noc(-c2ccc(OCCCc3ccccc3)cc2)c1C#N = 5
CSc1noc(-c2ccc(OCCOc3ccc([N+](=O)[O-])cc3)cc2)c1C#N = 2
CSc1noc(-c2ccc(OCCOc3ccc(Br)cc3)cc2)c1C#N = 2

Lab note: measured IC100 of CSc1noc(-c2ccc(OCCOc3ccc(C)cc3)cc2)c1C#N was 5

----------
Test system: HEp2 cells
assay.explanation: Cytotoxicity, HEp2 cell proliferation (microscopy, MTT test)
Assay type: cell-based
measurement.setup: 48-72 h incubation at 37° C.
measurement.name: Concentration inhibiting by 50% HEp2 cell proliferation: CD50

Query CSc1noc(-c2ccc(OCCOc3ccc(C)cc3)cc2)c1C#N on HEp2 cells; Concentration inhibiting by 50% HEp2 cell proliferation: CD50 returned: > 25 µM

Query CSc1noc(-c2ccc(OCCOc3ccc(Br)cc3)cc2)c1C#N on HEp2 cells; Concentration inhibiting by 50% HEp2 cell proliferation: CD50 returned: > 25 µM

----------
System: HRV-89
assay.explanation: Rhinovirus cytopathic effect reduction in HeLa-Ohio cells (MTT test)
Format: cell-based
measurement.setup: HRV-89, HeLa-Ohio cells
Item-by-item account of Concentration inhibiting by 100% viral replication
All answers are understood in µM, so give the number only.

CSc1noc(-c2ccc(OCCOc3ccccc3)cc2)c1C#N [ON-8] = 5
CSc1noc(-c2ccc(OCCCCOc3ccccc3)cc2)c1C#N [ON-10] = 1

Query CSc1noc(-c2ccc(OCCCc3ccccc3)cc2)c1C#N [ON-7] on HRV-89; Concentration inhibiting by 100% viral replication returned: 5

----------
Item-by-item account of Concentration inhibiting by 50% HEp2 cell proliferation: CD50
System: HEp2 cells
assay.explanation: Cytotoxicity, HEp2 cell proliferation (microscopy, MTT test)
Assay type: cell-based
measurement.setup: 48-72 h incubation at 37° C.

Reference set, count: 2
CSc1noc(-c2ccc(OCCc3ccccc3)cc2)c1C#N = > 20 µM
CSc1noc(-c2ccc(OCCCc3ccccc3)cc2)c1C#N = > 25 µM

Consider the additional compound presented here.
Query CSc1noc(-c2ccc(OCCOc3ccccc3)cc2)c1C#N on HEp2 cells; Concentration inhibiting by 50% HEp2 cell proliferation: CD50 returned: > 25 µM
